Listed molecules paired with reported growth
System: CCRF-CEM leukemia
Test: NCI-60 one-dose screen, 48 h (100 = growth as untreated, 0 = no growth, -100 = all killed)
Conditions: 10 µM unless noted
Method: Growth inhibition of the CCRF-CEM human tumor cell line is measured as a screen for anti-cancer activity. Cells are grown in 96 well plates and exposed to the test compound for 48 hours. Compounds are tested at a single concentration, which is 10^-5 M for most compounds. The reported endpoint is percent growth (GI% or GIPRCNT), where numbers from 0 - 100% represent growth inhibition, and numbers from -100% - 0 represent cell death. For example, a value of 40 represents 60% growth inhibition. […]
This is part of a sample that, as a whole, favours compounds with a hit. Of some 83,000 tested, about 20% had one in any assay.
Numeric only. Scale: %

Consider the reported growth for these molecules:
{"columns": ["Molecule", "growth / %"],
 "data": [
  ["O=C(Nc1cccc(-n2cc(-c3ccncc3)c(-c3ccc(Cl)c(O)c3)n2)c1)Nc1cccc(C(F)(F)F)c1", 10.6],
  ["Cc1ccc(S(=O)(=O)C2=C3C(=C(c4ccccc4)c4ccccc43)CN(S(=O)(=O)c3ccc(C)cc3)C2)cc1", -7.65],
  ["CCOC(=O)c1ccc2c(c1)c1c(C)c3cccnc3c(C)c1n2C", 47.9]
]}

Request: # lookup: growth of CCOc1cc2c(Cl)ncnc2c(OCC)c1OCC
Response: 11.2

Request: Looking for the measured growth of O=C(c1ccccc1)C1OC1c1ccc([N+](=O)[O-])cc1 (stereo not given) , can you help?
Response: 35.1

Request: Can you look up the measured growth of CCN(CC)CCC(CNc1c2ccc(Cl)cc2nc2ccc(OC)cc12)c1ccccc1 (stereo not given) for me?
Response: 0.732

Request: Look up growth for this molecule: O=c1ccn(-c2ncnc3nc[nH]c23)cc1
Response: 89.7

Request: Data request, read-out growth, for COc1ccc(-n2c(=S)sc3c(Cl)nc(C)nc32)c(OC)c1
Response: -1.34

Request: Given the molecule COc1cc(-c2nc(-c3nc4ccc(Cl)cc4[nH]3)cc3c2[nH]c2ccccc23)cc(OC)c1OC , what is its reported growth?
Response: 46.5

Request: What does the record list as growth for C/C=C/C1=CN2C(=O)c3cc(OC4OC(C)C(NC)C(C)(O)C4O)c(C)cc3N=C[C@@H]2C1 (stereo not given in full) ?
Response: 0.51

Request: Quick one: growth for O=[N+]([O-])c1ccc(OCCCOc2ccccc2)cc1 ?
Response: 105

Request: Could you share which growth value was measured for CCCCCCCCCCCCNC(=O)[C@H]1CSC(c2cc(Br)cs2)N1 (stereo not given in full) ?
Response: -42.1

Request: I'd like to know its growth. The molecule in question is CCCCCCCCN(CCCCCCCC)CCCCCCNc1cc(OC)cc2cccnc12
Response: -59

Request: Query (molecule): NC(=S)N/N=C(/CCN1CCCC1)CC(C1=C(O)C2=CCCCC2OC1=O)c1ccccc1 (stereo not given) ; field requested: growth
Response: 48.9

----------
Tested on: TK-10 renal
Assay: NCI-60 one-dose screen, 48 h (100 = growth as untreated, 0 = no growth, -100 = all killed)
Conditions: 10 µM unless noted
About 83,000 compounds went through this panel and 20% of them were active in at least one assay; those are over-represented in the sample as a whole. Active and inactive are the calls of the source. How the source made its calls: active means growth percent below 10; inactive means the rest.
Result Type: growth

{"columns": ["Compound", "Experimental Target", "Reported Measurement"],
 "data": [
  ["Cc1cc(N/N=C/c2nc(-c3ccc(Br)cc3)oc2C)c2cc(Br)ccc2n1", "TK-10 renal", "82% (inactive)"],
  ["C=C1CCC2C3(C)COC(c4c(OC)cccc4OC)OC3CCC2(C)C1C/C=C1/C(=O)OCC1O (stereo not given)", "TK-10 renal", "50.5% (inactive)"],
  ["Cc1ccc2[nH]c(=O)c3c(c2c1)Oc1ncn2nc(-c4ccco4)nc2c1C3c1ccc(Cl)cc1 (stereo not given)", "TK-10 renal", "107% (inactive)"],
  ["O=C(Nc1cccc(-n2cc(-c3ccncc3)c(-c3ccc(Cl)c(O)c3)n2)c1)Nc1ccc(Cl)c(C(F)(F)F)c1", "TK-10 renal", "-1.62% (active)"]
]}

Request: Any idea what its growth is? The compound is COc1ccc2c(c1)[nH]c(=O)c1c3cc(C)c(C)cc3cn21
Response: -34% (active)
